EXPERIMENT_DESCRIPTION: Human HepG2 cell viability assay in 384 well format
Format: toxicity, cell-based
Parameters: dose 125 nL, time 70.5 hour; concentration not given beside the values
CONDITION_PARAMETERS: HepG2 cells, read-out: Inhibition
Known cytotoxicity at 70.5 h of a selection of compounds
Number in %, nothing else.

Worked examples follow.
**Query** Indicate the recorded cytotoxicity at 70.5 h value for this compound: "COc1ccc(CCCN(C)C(=O)c2cc(Cl)c[nH]2)cc1OC"
**Result** -10.5

**Query** Indicate the recorded cytotoxicity at 70.5 h value for this compound: "COc1ccc(Cc2nnc3n2N=C(C(C)(C)C)CS3)cc1"
**Result** 8.14

**Query** Indicate the recorded cytotoxicity at 70.5 h value for this compound: "COCCNC(=O)Cn1cc(NC(=O)c2cccc(Cl)c2Cl)cn1"
**Result** -1.6

**Query** Indicate the recorded cytotoxicity at 70.5 h value for this compound: Cc1ccc(-n2ncc(C(=O)NCC3CCS(=O)(=O)C3)c2C)cc1 (configuration not stated)
**Result** -4.72

---
**Query** Indicate the recorded cytotoxicity at 70.5 h value for this compound: Cc1cn2nc(N3CCCC3Cn3nc(C)cc3C)sc2n1 (configuration not stated)
**Result** -7.66

**Query** Indicate the recorded cytotoxicity at 70.5 h value for this compound: "CC(=O)N1CCC(N2CCN3C(=O)N(Cc4ccccn4)C[C@H]3C2)CC1"
**Result** -1.05

**Query** Indicate the recorded cytotoxicity at 70.5 h value for this compound: CC(O)CN1CCC(CNCc2c[nH]nc2C(C)(C)C)CC1 (configuration not stated)
**Result** 70.3

**Query** Indicate the recorded cytotoxicity at 70.5 h value for this compound: "Cc1ccc2c(c1)CCC21CCN(CCO)CC1"
**Result** -1.71

**Query** Indicate the recorded cytotoxicity at 70.5 h value for this compound: "Cn1nc(C(=O)N2CCCC2)c2c1CN(CC1CCOCC1)C2"
**Result** 4.3
